# protocol.notes: Quantitative High-Throughput drug screen in 47 multiple myeloma cell lines against the NCATS MIPE library collection: FR4_PLB cell viability assay (AID 1918924; also: nearly all actives have a fitted effect of over 35% in size)
# recorded.conditions: FR4_PLB myeloma cells viability, CellTiter-Glo ATP, 48 h; series mostly up to 45.8 µM
Inconclusive results are not listed. Calls of active or inactive are those of the source. Calls follow the shape of the dose curve; as a rule, active = well fitted cell-killing curve with a large enough effect; inconclusive = small, poorly fitted or top-dose-only effect, or effect the other way; inactive = no such curve, though single readings can be large or run the other way.
Answer with one of the outcomes given here: active, inactive

1. O=C(O)c1nc(=O)[nH]c(=O)[nH]1
inactive
2. CC(C)CN(C[C@@H](O)[C@H](Cc1ccccc1)NC(=O)O[C@H]1CO[C@H]2OCC[C@H]21)S(=O)(=O)c1ccc(N)cc1
inactive
3. CC(C)=CCCC(C)=CCCC(C)=CCCC(C)=CCCC(C)=CCCC(C)=CCCC(C)=CCCC(C)=CCCC(C)=CCO
inactive

Per the assay record, what outcome was assigned to `COc1ccc(C=CC(=O)Nc2ccccc2C(=O)O)cc1OC` ?
inactive

Per the assay record, what outcome was assigned to `O=C(c1ccc(F)c(F)c1Nc1ccc(I)cc1F)N1CC(O)([C@H]2CCCCN2)C1` ?
active

Per the assay record, what outcome was assigned to `CN1CCC(COc2cnc(-c3cccc(Cn4nc(-c5cccc(C#N)c5)ccc4=O)c3)nc2)CC1` ?
active

Per the assay record, what outcome was assigned to `C#CCN(C)CC1=Cc2ccccc2Oc2ccccc21` ?
inactive

Per the assay record, what outcome was assigned to CC1(C)C(N(O)C(=O)Nc2ccc(Cl)cc2)N(c2ccc(Cl)cc2)C(=O)N1CC(=O)NN=CC=Cc1ccc([N+](=O)[O-])o1 (centres undefined) ?
active

Per the assay record, what outcome was assigned to `COC(=O)[C@H](c1ccccc1Cl)N1CCc2sccc2C1` ?
inactive
